# TEST TARGET: androgen receptor (AR) splicing variant AR-v7 (Homo sapiens, UniProt P10275)
# Construct: The degradation activity of compounds on AR-v7 in 22RV1 cells; host or cells: 22RV1 cells
# Sequence (P10275 1-644 isoform P10275-3): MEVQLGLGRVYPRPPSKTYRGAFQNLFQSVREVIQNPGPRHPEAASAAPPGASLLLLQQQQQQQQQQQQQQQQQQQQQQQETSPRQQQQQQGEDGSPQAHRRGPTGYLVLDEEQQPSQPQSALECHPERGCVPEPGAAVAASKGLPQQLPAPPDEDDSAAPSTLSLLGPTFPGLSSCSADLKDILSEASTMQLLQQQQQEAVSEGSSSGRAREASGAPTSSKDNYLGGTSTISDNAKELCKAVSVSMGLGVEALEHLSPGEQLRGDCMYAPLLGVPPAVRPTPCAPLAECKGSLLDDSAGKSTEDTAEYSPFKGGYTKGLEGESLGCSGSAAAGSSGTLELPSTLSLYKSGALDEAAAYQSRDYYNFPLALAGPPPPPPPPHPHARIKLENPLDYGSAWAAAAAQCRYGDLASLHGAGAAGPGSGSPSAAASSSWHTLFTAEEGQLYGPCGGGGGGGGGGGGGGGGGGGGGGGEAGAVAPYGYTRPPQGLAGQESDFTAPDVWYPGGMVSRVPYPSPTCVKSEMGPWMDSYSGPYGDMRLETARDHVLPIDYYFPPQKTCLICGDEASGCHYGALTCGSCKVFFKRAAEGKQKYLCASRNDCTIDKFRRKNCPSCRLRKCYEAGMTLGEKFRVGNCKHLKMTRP
# TEST PROTOCOL: Degradation activity on androgen receptor splicing variant AR-v7 in 22RV1 cells (ELISA)
# Format: cell-based
# CONDITION DESCRIPTION: AR-v7 degradation in 22RV1 cells, 48 h, class symbols
QUANTITY NAME: DC50

Previously resolved entries follow.
CC(C)(c1ccc(OCc2ccnc(-n3cnnc3)n2)cc1)c1ccc(O[C@H]2C[C@@H](Nc3ccc4c(c3)C(=O)N(C3CCC(=O)NC3=O)C4=O)C2)cc1 (stereo partly drawn)
< 10 nM
Cc1nc(-c2ccc(Oc3ccc(C(C)(C)c4ccc(OC5CC(Nc6ccc7c(c6)C(=O)N(C6CCC(=O)NC6=O)C7=O)C5)cc4)cc3)cn2)no1 (stereo not drawn)
11 to 100 nM

Moving on to the next compound.
# DC50 (compound: CC(=O)c1ncc(Oc2ccc(C(C)(C)c3ccc(O[C@H]4C[C@H](Nc5ccc6c(c5)C(=O)N(C5CCC(=O)NC5=O)C6=O)C4)cc3)cc2)cn1 (stereo partly drawn) ) is < 10 nM

====

# TEST TARGET: androgen receptor (AR) splicing variant AR-v7 (Homo sapiens, UniProt P10275)
# Construct: The degradation activity of compounds on AR-v7 in 22RV1 cells; host or cells: 22RV1 cells
# TEST PROTOCOL: Degradation activity on androgen receptor splicing variant AR-v7 in 22RV1 cells (ELISA)
# Assay type: cell-based
# CONDITION DESCRIPTION: AR-v7 degradation in 22RV1 cells, 48 h, class symbols
What DC50 was measured for each of the following?

CN1CCC2(CCN(c3nccc(COc4ccc(C(C)(C)c5ccc(OC6CC(Nc7ccc8c(c7)C(=O)N(C7CCC(=O)NC7=O)C8=O)C6)cc5)cc4)n3)C2)C1 (stereo not drawn)
11 to 100 nM
CN[C@@H]1CCCN(c2nccc(COc3ccc(C(C)(C)c4ccc(O[C@H]5C[C@@H](Nc6ccc7c(c6)C(=O)N(C6CCC(=O)NC6=O)C7=O)C5)cc4)cc3)n2)C1 (stereo partly drawn)
11 to 100 nM

Now look at this entry.
The measured DC50 associated with CC(C)(c1ccc(Oc2nccc(N3CC4(COC4)C3)n2)cc1)c1ccc(O[C@H]2C[C@@H](Nc3ccc4c(c3)C(=O)N(C3CCC(=O)NC3=O)C4=O)C2)cc1 (stereo partly drawn) reads < 10 nM

====

# TEST TARGET: androgen receptor (AR) splicing variant AR-v7 (Homo sapiens, UniProt P10275)
# Construct: The degradation activity of compounds on AR-v7 in 22RV1 cells; host or cells: 22RV1 cells
# TEST PROTOCOL: Degradation activity on androgen receptor splicing variant AR-v7 in 22RV1 cells (ELISA)
# Assay type: cell-based
# CONDITION DESCRIPTION: AR-v7 degradation in 22RV1 cells, 48 h, class symbols
QUANTITY NAME: DC50

// known answers, use as guide
CC(O)c1ncc(Oc2ccc(C3(c4ccc(O[C@H]5C[C@H](Nc6ccc7c(c6)C(=O)N(C6CCC(=O)NC6=O)C7=O)C5)cc4)CCCCC3)cc2)cn1 (stereo partly shown)
< 10 nM
CC(C)(c1ccc(Oc2cnc(N)nn2)cc1)c1ccc(O[C@H]2C[C@H](Nc3ccc4c(c3)C(=O)N(C3CCC(=O)NC3=O)C4=O)C2)cc1 (stereo partly shown)
11 to 100 nM

Batch of 2 molecules: report DC50 for each.
1. CC(C)(c1ccc(OCCCNc2ccc3c(c2)C(=O)N(C2CCC(=O)NC2=O)C3=O)cc1)c1ccc(OCc2nc(CO)co2)cc1 (stereo not shown)
2. Cc1nnc(-c2cccc(Oc3ccc(C(C)(C)c4ccc(O[C@H]5C[C@H](Nc6ccc7c(c6)C(=O)N(C6CCC(=O)NC6=O)C7=O)C5)cc4)cc3)n2)o1 (stereo partly shown)

11 to 100 nM
< 10 nM
